Recorded cytotoxicity at 10 µM, one value per entry.
- assayName: Toxicity liver stage against HepG2, at 10uM
- Assay type: cell-based
- Design: test concentration 10 uM, cell line HepG2-A16-CD81EGFP
- settings: human, HepG2-A16-CD81EGFP cells; read-out: INHIBITION

Some solved entries appear below for comparison.
# molecule, cytotoxicity at 10 µM
records = [
    ("Cc1ccc(C(=O)NCc2ccccc2S(=O)(=O)N(C)CCO)cc1F", "-3.04%"),
    ("CS(=O)(=O)c1cccc(C(=O)NCc2nc3cc(F)ccc3[nH]2)c1", "12.2%"),
    ("O=C(CC1CN(Cc2ccccc2)CCO1)NCCN1CCOCC1 (stereo unspecified)", "6.67%"),
    ("CCS(=O)(=O)N1CCc2cc(C(=O)NC)c(N(C)C)nc2CC1", "-141%"),
    ("Cc1nccc([C@@H]2C[C@@H]3CCN(Cc4ccco4)C[C@H]3O2)n1", "-2.61%"),
]

Next molecule, cytotoxicity at 10 µM to be filled in.
Consider O=C(NCC1CCOCC1)[C@@H]1C[C@@H]2[C@@H](CCN2Cc2nccs2)O1 . Its measured cytotoxicity at 10 µM is 0.11%
